Molecular target: UniProt:Q9Z351
Sequence (Q9Z351 whole entry): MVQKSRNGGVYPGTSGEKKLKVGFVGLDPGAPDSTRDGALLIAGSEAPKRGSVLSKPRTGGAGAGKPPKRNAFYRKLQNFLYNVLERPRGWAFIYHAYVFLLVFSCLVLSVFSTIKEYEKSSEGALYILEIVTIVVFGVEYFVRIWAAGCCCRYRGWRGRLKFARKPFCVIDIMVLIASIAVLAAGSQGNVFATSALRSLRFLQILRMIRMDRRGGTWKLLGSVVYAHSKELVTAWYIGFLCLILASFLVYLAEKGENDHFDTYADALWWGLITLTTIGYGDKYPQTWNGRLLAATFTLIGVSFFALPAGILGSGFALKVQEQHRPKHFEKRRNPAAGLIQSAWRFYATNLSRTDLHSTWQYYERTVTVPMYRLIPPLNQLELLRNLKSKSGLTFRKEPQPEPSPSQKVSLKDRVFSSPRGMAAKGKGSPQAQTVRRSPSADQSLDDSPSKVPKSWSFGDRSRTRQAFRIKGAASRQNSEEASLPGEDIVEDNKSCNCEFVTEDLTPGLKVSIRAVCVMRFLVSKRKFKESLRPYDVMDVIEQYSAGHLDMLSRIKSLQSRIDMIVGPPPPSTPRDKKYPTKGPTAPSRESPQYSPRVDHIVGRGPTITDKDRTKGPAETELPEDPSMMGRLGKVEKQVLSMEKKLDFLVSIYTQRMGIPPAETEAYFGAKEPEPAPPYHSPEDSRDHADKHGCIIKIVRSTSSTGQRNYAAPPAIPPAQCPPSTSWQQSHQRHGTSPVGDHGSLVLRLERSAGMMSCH
Assay: Ability to open cloned mKCNQ2 channel expressed in Xenopus laevis oocytes at 10 uM expressed as percent of compound-free control current at -40 mV
Format: functional, cell-based
Details: Oocyte
Each entry below carries its reported KCNQ2 current at -40 mV as percent of compound-free control.
measurement.name: KCNQ2 current at -40 mV as percent of compound-free control

# molecule, endpoint.result
records = [
    ("COc1ccccc1/C=C/C(=O)N[C@@H](C)c1cccc(N2CCOCC2)c1", "99%"),
    ("CC1CN(c2cccc([C@H](C)NC(=O)/C=C/c3ccc(F)cc3)c2)CC(C)O1 (some centres undefined)", "133%"),
    ("C[C@H](NC(=O)/C=C/c1ccc(F)cc1F)c1cccc(N2CCOCC2)c1", "124%"),
    ("C[C@H](NC(=O)/C=C/c1ccc(F)cc1)c1ccc(F)c(N2CCOCC2)c1", "142%"),
]
